// provenance: the supplement of paper PMC11196671

assay: PET hydrolysis product formed (TPA+MHET+BHET, UV-Vis) per mg enzyme (mmol/mg enzyme); higher = more PET depolymerisation activity; extreme values may be limits of the assay; details: PET substrate: cryPow; 60 °C; pH 9.5; 24 h
RESULT TYPE: PET hydrolysis product formed
Numbers only.

So, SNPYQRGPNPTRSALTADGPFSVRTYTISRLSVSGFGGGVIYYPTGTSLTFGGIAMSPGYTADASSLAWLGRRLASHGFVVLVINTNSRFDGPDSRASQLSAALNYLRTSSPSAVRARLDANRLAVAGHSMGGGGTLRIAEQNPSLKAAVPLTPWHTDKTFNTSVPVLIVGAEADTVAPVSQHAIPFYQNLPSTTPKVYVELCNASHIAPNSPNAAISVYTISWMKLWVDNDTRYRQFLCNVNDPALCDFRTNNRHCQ [LCC-ICCG RIP] ? Its PET hydrolysis product formed was 0.0784
